The values you see were collected from ChEMBL document CHEMBL4311953.

test: Binding affinity to 6-FAM-5'-CAGCGCTCGG(20T)CCGAGCGCTG-3'-dabcyl DNA (unknown origin) by spectrofluorimetric method
pKd: −log10 of the molar value.

| chemicalSmiles | pKd |
| --- | --- |
| COc1ccc2nc3cc(Cl)ccc3c(Nc3ccc(O)c(CN4CCN(CCN(C)C)CC4)c3)c2c1 | 5.68 |

---

target: DNA excision repair protein ERCC-1/DNA repair endonuclease XPF (Homo sapiens, UniProt P07992+Q92889)
Sequence (P07992 whole entry): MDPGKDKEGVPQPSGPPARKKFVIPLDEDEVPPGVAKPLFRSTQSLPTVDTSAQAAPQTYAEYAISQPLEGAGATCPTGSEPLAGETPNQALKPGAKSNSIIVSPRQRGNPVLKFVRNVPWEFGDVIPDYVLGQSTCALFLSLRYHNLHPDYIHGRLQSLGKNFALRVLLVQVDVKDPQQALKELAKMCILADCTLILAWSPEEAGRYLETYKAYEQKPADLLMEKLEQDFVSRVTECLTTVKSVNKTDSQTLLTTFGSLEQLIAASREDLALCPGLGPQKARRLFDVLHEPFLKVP
Sequence (Q92889 whole entry): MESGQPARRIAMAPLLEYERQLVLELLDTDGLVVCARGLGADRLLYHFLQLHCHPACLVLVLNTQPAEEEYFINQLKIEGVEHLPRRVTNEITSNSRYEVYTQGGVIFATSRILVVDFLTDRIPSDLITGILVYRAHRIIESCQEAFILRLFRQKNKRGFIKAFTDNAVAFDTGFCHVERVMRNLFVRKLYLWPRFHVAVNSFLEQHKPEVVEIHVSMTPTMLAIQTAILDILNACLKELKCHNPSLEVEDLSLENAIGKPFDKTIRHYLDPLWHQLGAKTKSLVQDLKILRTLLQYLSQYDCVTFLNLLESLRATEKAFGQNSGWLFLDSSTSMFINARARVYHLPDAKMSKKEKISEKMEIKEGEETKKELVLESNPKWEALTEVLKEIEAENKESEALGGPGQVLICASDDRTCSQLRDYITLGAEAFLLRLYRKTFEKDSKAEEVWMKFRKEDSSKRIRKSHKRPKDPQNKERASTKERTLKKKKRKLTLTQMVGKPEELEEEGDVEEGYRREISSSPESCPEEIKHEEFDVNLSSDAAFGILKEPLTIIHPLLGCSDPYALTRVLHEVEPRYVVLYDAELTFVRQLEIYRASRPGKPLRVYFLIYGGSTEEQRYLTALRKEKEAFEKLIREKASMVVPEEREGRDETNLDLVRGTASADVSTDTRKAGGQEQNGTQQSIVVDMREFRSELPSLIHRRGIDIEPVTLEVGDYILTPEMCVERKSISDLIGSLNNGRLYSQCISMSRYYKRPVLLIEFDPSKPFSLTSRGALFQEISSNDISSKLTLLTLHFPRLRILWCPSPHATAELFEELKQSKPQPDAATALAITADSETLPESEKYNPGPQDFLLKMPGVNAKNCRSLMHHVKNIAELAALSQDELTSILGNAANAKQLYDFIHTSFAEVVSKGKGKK
pIC50: −log10 of the molar value.

| chemicalSmiles | pIC50 |
| --- | --- |
| COc1ccc2nc3cc(Cl)ccc3c(Nc3ccc(O)c(CN4CCN(C)CC4)c3)c2c1 | 5.73 |
